Kindly supply the reported IC50 values for the records listed here.
- TESTED_TARGET: Pancreatic lipase (PL) (Sus scrofa)
- Construct: purchased Sigma Aldrich type II, Lot.SLBN9099V
- Sequence (P00591 whole entry): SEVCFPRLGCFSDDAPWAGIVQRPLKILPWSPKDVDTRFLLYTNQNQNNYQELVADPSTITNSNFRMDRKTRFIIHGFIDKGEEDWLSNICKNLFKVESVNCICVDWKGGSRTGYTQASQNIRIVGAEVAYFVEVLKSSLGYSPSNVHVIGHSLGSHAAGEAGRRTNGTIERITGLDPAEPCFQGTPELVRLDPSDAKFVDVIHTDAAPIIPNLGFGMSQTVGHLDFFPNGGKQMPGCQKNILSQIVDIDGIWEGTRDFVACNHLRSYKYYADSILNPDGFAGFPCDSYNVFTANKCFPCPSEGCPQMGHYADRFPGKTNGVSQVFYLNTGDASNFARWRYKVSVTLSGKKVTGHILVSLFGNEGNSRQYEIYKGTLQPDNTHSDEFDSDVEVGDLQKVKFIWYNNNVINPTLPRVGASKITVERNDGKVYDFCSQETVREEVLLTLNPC
- PROTOCOL_TEXT: Inhibition of PL-mediated 4-MUO hydrolysis
- Assay type: biochemical
- CONDITIONS_USED: 4-MUO substrate, mean ± SD (n = 3)

Just so you know, measured IC50 for CC(C)=CCC[C@](C)(O[C@@H]1O[C@H](CO)[C@@H](O)[C@H](O)[C@H]1O)[C@H]1CC[C@]2(C)[C@@H]1[C@H](O)C[C@@H]1[C@@]3(C)CC[C@H](O)C(C)(C)[C@@H]3[C@@H](O[C@@H]3O[C@H](CO)[C@@H](O)[C@H](O)[C@H]3O[C@@H]3O[C@@H](C)[C@H](O)[C@@H](O)[C@H]3O)C[C@]12C came out at > 100 µM

Just so you know, measured IC50 for CC(C)=CCC[C@](C)(O)[C@H]1CC[C@]2(C)[C@@H]1[C@H](O)C[C@@H]1[C@@]3(C)CC[C@H](O)C(C)(C)[C@@H]3[C@@H](O[C@@H]3O[C@H](CO)[C@@H](O)[C@H](O)[C@H]3O[C@@H]3O[C@@H](C)[C@H](O)[C@@H](O)[C@H]3O)C[C@]12C came out at > 100 µM

Just so you know, measured IC50 for CC(C)=CCC[C@](C)(O)[C@H]1CC[C@]2(C)[C@@H]1[C@H](O)C[C@@H]1[C@@]3(C)CC[C@H](O)C(C)(C)[C@@H]3[C@@H](O[C@@H]3O[C@H](CO)[C@@H](O)[C@H](O)[C@H]3O)C[C@]12C came out at > 100 µM
